All figures here come from paper PMC8667043.

System: MV4-11
Experiment: WST-1 cell proliferation assay
Assay type: cell-based
Settings: Homo sapiens, AML, WST-1, 48 h, read-out: IC50 antiproliferative effect, MV4-11
Measured attribute: IC50

[[record]]
molecule = "O=C(O)c1cnc(SCCCc2ccccc2)[nH]c1=O [compound 10]"
assay_system = "MV4-11"
obs_value = "> 100 µM"

[[record]]
molecule = "O=C(O)c1c[nH]c(=S)[nH]c1=O [compound 1]"
assay_system = "MV4-11"
obs_value = "> 100 µM"


Enquiry: Give the reported IC50 for O=C(O)c1cnc(SCCc2ccccc2)[nH]c1=O [compound 9] (system: MV4-11).
Return: > 100 µM
